B1: library; numbered along this chain (parent)
chain: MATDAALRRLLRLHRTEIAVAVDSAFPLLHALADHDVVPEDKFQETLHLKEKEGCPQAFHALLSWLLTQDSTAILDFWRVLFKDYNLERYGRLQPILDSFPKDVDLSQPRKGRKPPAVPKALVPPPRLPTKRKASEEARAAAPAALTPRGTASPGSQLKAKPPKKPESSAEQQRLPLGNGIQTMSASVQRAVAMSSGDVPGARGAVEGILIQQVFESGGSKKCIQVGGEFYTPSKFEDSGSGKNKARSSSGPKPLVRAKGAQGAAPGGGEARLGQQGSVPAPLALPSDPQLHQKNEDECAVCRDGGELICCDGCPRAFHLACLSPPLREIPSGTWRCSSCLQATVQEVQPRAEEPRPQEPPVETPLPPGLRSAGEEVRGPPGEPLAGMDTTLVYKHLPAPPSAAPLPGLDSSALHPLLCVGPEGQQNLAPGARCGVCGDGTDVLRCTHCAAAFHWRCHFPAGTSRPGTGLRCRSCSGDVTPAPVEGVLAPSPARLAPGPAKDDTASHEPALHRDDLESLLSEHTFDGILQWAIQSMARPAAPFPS

Variants of: B1
Test: AIRE transcriptional activation functional score (insulin promoter-GFP; nonsense median 0, synonymous median 1) (normalised score); higher = higher AIRE activity (more reporter activation)
Conditions: with insulin promoter-GFP reporter in HEK293
reported-property: AIRE transcriptional activation functional score
Number only, please.

variant-spec | recorded-result
K222Q | 1.11

Turning now to a further variant:
Prompt: I am curious: what AIRE transcriptional activation functional score value has been reported for "A317H" ?
Completion: 1.06

The reported numbers originate from the supplement of paper PMC12667976.
